Source of measurements: ChEMBL document CHEMBL3988442

Listing of recorded Percent Effect by entry.
Tested on: Wolbachia pipientis
experimentalProtocol: Anti-Wolbachia Cell-Based Screen
Assay type: functional
Set-up: scale not given: in the data most compounds retested in dose-response had high values
condition: 5 µM
Among all 48,000 compounds or so, about 13,000 (27%) showed an effect of 50% or more. This is one part of the list.
Give just the numeric value; % need not be written.

{"molecule": "CN(C)CCN1C[C@@H]2OCCN(Cc3cnn(C)c3)[C@@H]2C1", "Percent Effect [%]": -15.62}
{"molecule": "Cc1cccc(CN2CCC(NCC3CNc4cc(C)nn4C3)CC2)c1 (centres undefined)", "Percent Effect [%]": 17.46}
{"molecule": "Cc1cccc(CN2CCC(c3nnsc3S(C)(=O)=O)CC2)c1", "Percent Effect [%]": 168.1}
{"molecule": "Cc1cc(-c2cnn(CCNC(=O)Cc3ccccn3)c2C2CC2)on1", "Percent Effect [%]": 116.9}
{"molecule": "NC(=O)COc1ccc(CN2CCNC(C(=O)NC3CC3)C2)cc1Cl (centres undefined)", "Percent Effect [%]": -45.28}
{"molecule": "COc1ccc(CN2CCC(C(N)=O)CC2)cc1SC(F)(F)F", "Percent Effect [%]": 0.6878}
{"molecule": "Fc1ccc(CN2CCC(c3nccnc3-n3ccnc3)CC2)cc1", "Percent Effect [%]": -7.393}
{"molecule": "CCC(NCCn1cccn1)C(=O)Nc1cc(C)on1 (centres undefined)", "Percent Effect [%]": -12.89}

Now for the molecule whose Percent Effect we want.
# input Which Percent Effect is listed for CC1CCN(C(CNC(=O)CCn2cccn2)c2cccs2)CC1 (centres undefined) ?
# output 3.155

====

System: Wolbachia pipientis
experimentalProtocol: Anti-Wolbachia Cell-Based Screen
Assay type: functional
Design: scale not given: in the data most compounds retested in dose-response had high values
condition: 5 µM
The campaign covered roughly 48,000 compounds. About 13,000 (27%) showed an effect of 50% or more. The list shows a part of the results.
observable: Percent Effect (%)
Give just the numeric value; % need not be written.

In the examples that follow, each entry is paired with its recorded Percent Effect.
{"compound": "CC(C)c1cc(C(=O)NC2CCN(CC(N)=O)CC2)nn1C(C)(C)C", "unitTag": "%", "measValue": 128}
{"compound": "COc1ccccc1[S+]([O-])CC(=O)NCc1cc(F)cc(F)c1 (stereo unspecified)", "unitTag": "%", "measValue": -8.178}
{"compound": "COCC(=O)N1CCN(S(=O)(=O)c2ccccc2)[C@@H](C(=O)OC)C1", "unitTag": "%", "measValue": 2.651}
{"compound": "O=C(NCC1CC1)c1nc2c(o1)CN(CC1CC1)C2.O=C(O)C(F)(F)F", "unitTag": "%", "measValue": -8.922}
{"compound": "CCNC(=O)N(C)Cc1ccc(SC)c(OC)c1", "unitTag": "%", "measValue": -16.12}

# input Which Percent Effect is listed for COc1ncccc1C(=O)N(C)Cc1nc(-c2ccccn2)no1 ?
# output 0.08907

# input Which Percent Effect is listed for COc1cc(C(=O)NC(C)C)nc2c(C)cc(F)cc12 ?
# output 104.7

====

System: Wolbachia pipientis
experimentalProtocol: Anti-Wolbachia Cell-Based Screen
Type: functional
Design: scale not given: in the data most compounds retested in dose-response had high values
condition: 5 µM
The whole screen tested about 48,000 compounds, of which about 13,000 (27%) showed an effect of 50% or more. The list shows a part of the results.
Listing of recorded Percent Effect by entry.
The reply should consist of the numeric value with the unit placed after it.

In the examples that follow, each entry is paired with its recorded Percent Effect.
{"compound": "Cc1cc(Nc2ncccn2)nc(C2CCCN(CCO)C2)n1 (centres undefined)", "testedSystem": "Wolbachia pipientis", "observable": "Percent Effect", "measValue": "168.6%"}
{"compound": "O=C(CCSc1ccccc1F)N1CCN(c2cnccn2)CC1", "testedSystem": "Wolbachia pipientis", "observable": "Percent Effect", "measValue": "4.662%"}
{"compound": "c1ccc2[nH]c(C3CCN(Cc4nnc(C5CC5)o4)CC3)nc2c1", "testedSystem": "Wolbachia pipientis", "observable": "Percent Effect", "measValue": "-0.6702%"}

# input Which Percent Effect is listed for Cc1cc(Nc2ccccn2)nc(C2CCCN(CCO)C2)n1.O=CO (centres undefined) ?
# output 136%
